- TEST_SYSTEM: Bcl-2-like protein 10 (Homo sapiens) (UniProt Q9HD36)
- Sequence (Q9HD36 whole entry, looked up): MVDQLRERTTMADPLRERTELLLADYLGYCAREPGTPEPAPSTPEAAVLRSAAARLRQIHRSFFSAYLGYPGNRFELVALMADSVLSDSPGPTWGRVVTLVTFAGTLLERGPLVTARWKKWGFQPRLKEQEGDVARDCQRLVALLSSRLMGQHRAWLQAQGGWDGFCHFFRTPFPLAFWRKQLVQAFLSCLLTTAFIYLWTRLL
- ASSAY_NOTES: TR3 peptide-Bcl-B binding displacers, biochemical primary FP assay, phenotype converters (AID 1240);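 note: 0% = Bcl-B with tracer peptide and DMSO and 100% = tracer peptide lacking Bcl-B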
- CONDITION_INFO: GST-Bcl-B / FITC-TR3 peptide fluorescence polarization; stronger effect = higher value; compound at 3.75 mg/L
In all, about 50,000 compounds went through this assay and about 800 (1.6%) showed an effect of 50% or more. Shown is part of a subset that was picked to be rich in strong results.
Exercise: for every item that follows, state its recorded displacement.
Please state the figure in %; there is no need to write the unit.

Task item: May I ask what displacement has been recorded for CCOC(=O)c1c(NC(=O)C(C)N2C(=O)c3ccccc3C2=O)sc2c1CCC(C)C2 (stereo not drawn) ?
Reply: 2.5

Task item: May I ask what displacement has been recorded for "O=C1NC(=S)NC(=O)C1=Cc1cn(CCOc2ccc(Br)cc2)c2ccccc12" ?
Reply: 9.1

Task item: May I ask what displacement has been recorded for "CC(C)C(=O)Nc1ccc(Cl)cc1C(=O)O" ?
Reply: 8.1

Task item: May I ask what displacement has been recorded for "CN(C)c1ccc(N/C(N)=N/c2nc(C(F)(F)F)cc(=O)[nH]2)cc1" ?
Reply: -5.8

Task item: May I ask what displacement has been recorded for "C=CCc1ccccc1OCCn1cc(C=C2C(=O)NC(=S)NC2=O)c2ccccc21" ?
Reply: 53.6

Task item: May I ask what displacement has been recorded for "O=[N+]([O-])c1ccc(C[n+]2cc(-c3ccc(Cl)c(Cl)c3)n3c2CCC3)cc1" ?
Reply: 9.6

Task item: May I ask what displacement has been recorded for "O=C1NC(=O)C(=Cc2cn(CCOc3ccc(Br)cc3)c3ccccc23)C(=O)N1" ?
Reply: 73.8

Task item: May I ask what displacement has been recorded for CCOc1cc(C2/C(=C(\O)c3ccc(C)cc3)C(=O)C(=O)N2c2nncs2)ccc1O (stereo not drawn) ?
Reply: 8.3

====

- TEST_SYSTEM: Bcl-2-like protein 10 (Homo sapiens) (UniProt Q9HD36)
- ASSAY_NOTES: TR3 peptide-Bcl-B binding displacers, biochemical primary FP assay, phenotype converters (AID 1240);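 note: 0% = Bcl-B with tracer peptide and DMSO and 100% = tracer peptide lacking Bcl-B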
- CONDITION_INFO: GST-Bcl-B / FITC-TR3 peptide fluorescence polarization; stronger effect = higher value; compound at 3.75 mg/L
About 800 (1.6%) of roughly 50,000 compounds showed an effect of 50% or more. The full list was thinned out, with strong results kept by preference.
QUANTITY_KIND: displacement (%)
Please state the figure in %; there is no need to write the unit.

Task item: May I ask what displacement has been recorded for CCC1=NN(C(=O)c2ccncc2)C(O)(c2ccc(Br)cc2)C1 (stereo not drawn) ?
Reply: 10.2

Task item: May I ask what displacement has been recorded for "COc1ccc(N(CC(=O)Nc2ccccc2C)S(C)(=O)=O)cc1Cl" ?
Reply: -10.4

Task item: May I ask what displacement has been recorded for "S=C1NCCOCCOCCOCCNC(=S)N2CCOCCOCCN1CCOCC2" ?
Reply: 14.7

Task item: May I ask what displacement has been recorded for "CCN(Cc1ccccc1)C(=O)c1ccccc1[N+](=O)[O-]" ?
Reply: -11.3

Task item: May I ask what displacement has been recorded for O=C(COc1ccc2ccccc2c1)NCC1CCCO1 (stereo not drawn) ?
Reply: 12.6

Task item: May I ask what displacement has been recorded for Cc1ccc([N+](=O)[O-])cc1NC(=O)CC1Sc2ccccc2NC1=O (stereo not drawn) ?
Reply: 3.4

Task item: May I ask what displacement has been recorded for CC(C)(C)c1ccc(OCC(O)CS(=O)(=O)Cc2ccc(Cl)cc2)cc1 (stereo not drawn) ?
Reply: 8.5

Task item: May I ask what displacement has been recorded for "Cc1[nH]c2ccccc2c1/C=C/c1nc2ccccc2c(=O)n1C" ?
Reply: 186

Task item: May I ask what displacement has been recorded for "Cc1cccc(C(=O)O/N=C(\N)c2ccc(Br)cc2)c1" ?
Reply: -0.6

Task item: May I ask what displacement has been recorded for "COc1ccc(-c2cc(C(=O)Nc3nc4ccc(S(C)(=O)=O)cc4s3)c3ccccc3n2)cc1OC" ?
Reply: 5

Task item: May I ask what displacement has been recorded for "Cc1ccc(N(CC(=O)N(Cc2ccccc2)Cc2ccccc2)S(C)(=O)=O)cc1" ?
Reply: -7.5

Task item: May I ask what displacement has been recorded for "Cn1c(/C=C/c2c[nH]c3ccccc23)nc2ccccc2c1=O" ?
Reply: 108

Task item: May I ask what displacement has been recorded for "NC(=O)SCC(=O)Nc1ccccc1O" ?
Reply: 4.9

Task item: May I ask what displacement has been recorded for "CSc1ccc(CN2CCN(C(=O)c3ccco3)CC2)cc1" ?
Reply: -13.1

Task item: May I ask what displacement has been recorded for COC(=O)c1c(NC(=O)c2ccco2)sc2c1CCC(C)C2 (stereo not drawn) ?
Reply: 0.1

Task item: May I ask what displacement has been recorded for "O=[N+]([O-])c1cccc(S(=O)(=O)NCc2ccccc2)c1" ?
Reply: -3.3

Task item: May I ask what displacement has been recorded for "COC(=O)c1c(NC(=O)c2ccco2)sc2c1CCC2" ?
Reply: 91.1

Task item: May I ask what displacement has been recorded for "COc1ccc(-c2ccc(/C=C/c3cc(C(F)(F)F)[nH]c(=O)n3)o2)c([N+](=O)[O-])c1" ?
Reply: 78.8
